For each record, write down the corresponding pIC50.
Target: SARS-CoV-2 3CL-protease (Severe acute respiratory syndrome coronavirus 2 (2019-nCoV) (SARS-CoV-2))
Assay: SARS-CoV-2 3C-like (3CL) protease fluorescence assay (FRET)
Format: biochemical
Details: recombinant SARS-CoV-2 3CL-protease 10 nM, 30 min preincubation at RT, TAMRA-SITSAVLQSGFRKMK-Dabcyl-OH substrate, run in duplicate
Experimental: SARS-CoV-2 3C-like (3CL) protease fluorescence assay (FRET): Recombinant SARS-CoV-2 3CL-protease was expressed and purified. TAMRA-[…]-Dabcyl-OH peptide 3CLpro substrate was synthesized. Black, low volume, round-bottom, 384 well microplates were used. In a typical assay, 0.85 μL of test compound was dissolved in DMSO then incubated with SARS-CoV-2 3CL-protease (10 nM) in 10 μL assay buffer (50 mM HEPES [pH 7.5], 1 mM DTT, 0.01% BSA, 0.01% Triton-X 100) for 30 min at RT. […]
pIC50: −log10 of the molar value.

Endpoint output: pIC50 of CC(C)C[C@@H](C(=O)N1C[C@]2(C[C@H]1C#N)C(=O)Nc1ccccc12)N1Cc2cc(Br)ccc2C1=O [Compound 9] . Value?
> 7.00

Endpoint output: pIC50 of CC(C)C[C@H](C(=O)N1C[C@]2(C[C@H]1C#N)C(=O)Nc1ccccc12)n1cccc(-c2ccc(F)cc2)c1=O [Compound 25-b] . Value?
< 6.00
